Taken from PubChem BioAssay (NCI).

# Tested on: SF-268 CNS
# test.summary: NCI-60 one-dose screen, 48 h (100 = growth as untreated, 0 = no growth, -100 = all killed)
# test.parameters: 10 µM unless noted
Compounds without any hit were thinned out: in the full panel of roughly 83,000, 20% have a hit.
growth less than 90% is MET; growth greater than or equal to 90% is NOT MET.

Before answering, review these 3 worked examples.
C/C(=C\c1ccn(-c2ccccc2N)n1)[C@@H]1C[C@@H]2O[C@]2(C)CCC[C@H](C)[C@H](O)[C@@H](C)C(=O)C(C)(C)[C@@H](O)CC(=O)O1
MET
C/C(=C\c1ccn(-c2ccc(N)cc2C(F)(F)F)n1)[C@@H]1C[C@@H]2O[C@]2(C)CCC[C@H](C)[C@H](O)[C@@H](C)C(=O)C(C)(C)[C@@H](O)CC(=O)O1
MET
[Cl][Hg][n]1c(-c2ccco2)nc2ccccc21
NOT MET

Does `O=C1CN=C(c2ccc(Cl)cc2)c2sccc2N1` have growth strictly under 90%?
NOT MET

Does `C#Cc1ccc2c(c1)C(c1ccccc1)=NCC(=O)N2C` have growth strictly under 90%?
MET

Does CC[C@@H]1[C@@H](C)O[C@@](O)([C@@H](C)[C@H](O)[C@H](C)[C@H]2OC(=O)/C=C/C=C/[C@H](C)[C@@H]([C@@H](C)[C@@H](O)[C@H](C)[C@@]3(O)C[C@@H](O[C@H]4C[C@@H](O)[C@H](O)C(C)O4)[C@H](CC)[C@@H](C)O3)OC(=O)/C=C/C=C/[C@@H]2C)C[C@H]1O[C@@H]1C[C@@H](O)[C@H](O)C(C)O1 (some centres not stated) have growth strictly under 90%?
MET

Does `CCCC[C@H](NC(=O)[C@H]1CCCN1C)C(=O)N(C)[C@H](C[C@@H](OC(C)=O)c1nc(C(=O)N[C@@H](Cc2ccccc2)C[C@H](C)C(=O)OCC)cs1)C(C)C` have growth strictly under 90%?
MET

Does O=C1CCC2(O)[C@@H]3Cc4ccc(O)c5c4[C@]2(CCN3Cc2ccoc2)C1O5 (some centres not stated) have growth strictly under 90%?
NOT MET
